target: T1, Mouse; assay: ELISA
T1 construct: also called mouse EphA4 extracellular domain-SEAP-His protein
Property name: absorbance
Please respond with just the number, no unit label.

Worked cases, answers included:
KPEP11_04 (antibody, V domains shown, Rabbit IgG/kappa; Used HRP-labeled as detection antibody in the sandwich ELISAs; also called anti-human EphA4 rabbit monoclonal antibody KPEP11_04; HRP-labeled KPEP11_04) VH: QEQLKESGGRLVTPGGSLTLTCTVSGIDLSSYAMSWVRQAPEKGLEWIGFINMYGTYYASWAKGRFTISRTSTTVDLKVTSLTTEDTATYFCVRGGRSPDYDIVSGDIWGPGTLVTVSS VL: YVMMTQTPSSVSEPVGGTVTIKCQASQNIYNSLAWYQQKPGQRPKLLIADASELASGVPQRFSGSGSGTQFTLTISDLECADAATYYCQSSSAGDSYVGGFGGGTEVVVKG | 0.044
KPEP11_09 (antibody, V domains shown, Rabbit IgG; also called anti-human EphA4 rabbit monoclonal antibody KPEP11_09) VH: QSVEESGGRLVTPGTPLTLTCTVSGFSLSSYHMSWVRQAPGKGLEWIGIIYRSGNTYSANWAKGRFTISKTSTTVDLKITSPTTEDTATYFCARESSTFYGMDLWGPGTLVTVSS VL: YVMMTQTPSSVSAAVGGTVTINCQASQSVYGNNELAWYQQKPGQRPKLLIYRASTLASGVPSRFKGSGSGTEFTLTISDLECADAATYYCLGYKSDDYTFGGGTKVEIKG | 0.079

Consider the record given below.
(Q) Reported absorbance for KPEP11_12 (antibody, V domains shown, Rabbit IgG; also called anti-human EphA4 rabbit monoclonal antibody KPEP11_12) VH: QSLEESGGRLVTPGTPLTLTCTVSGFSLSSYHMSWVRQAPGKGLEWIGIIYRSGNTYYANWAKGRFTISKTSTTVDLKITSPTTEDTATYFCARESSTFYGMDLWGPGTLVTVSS VL: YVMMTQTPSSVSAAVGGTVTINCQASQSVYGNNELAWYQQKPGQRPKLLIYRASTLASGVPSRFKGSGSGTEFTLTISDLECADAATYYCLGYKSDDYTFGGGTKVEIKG : what is it?
(A) 0.059
